This section presents binders with their documented EC50 values.
- Measured target: T1, cynomolgus TROP2-his protein (cynomolgus monkey, UniProt P09758 27-272 (human entry), limits assumed)
- T1 construct: no cleavage site is stated; also called Cynomolgus monkey TROP2-his protein; monkey TROP2
- T1 chain: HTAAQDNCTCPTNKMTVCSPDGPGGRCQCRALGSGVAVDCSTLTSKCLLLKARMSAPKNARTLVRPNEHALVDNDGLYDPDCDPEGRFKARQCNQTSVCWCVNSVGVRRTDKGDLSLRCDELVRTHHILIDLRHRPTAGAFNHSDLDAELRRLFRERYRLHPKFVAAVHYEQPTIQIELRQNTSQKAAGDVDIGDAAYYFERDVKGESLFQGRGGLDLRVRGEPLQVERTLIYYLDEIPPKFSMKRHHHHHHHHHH
- Procedure details: indirect ELISA, cynomolgus TROP2-his coated, OD(450-630)

>  <Binder>
chimeric A1E4F7D4 (antibody, human IgG1, kappa, V domains shown, also called chimeric antibody A1E4F7D4) VH: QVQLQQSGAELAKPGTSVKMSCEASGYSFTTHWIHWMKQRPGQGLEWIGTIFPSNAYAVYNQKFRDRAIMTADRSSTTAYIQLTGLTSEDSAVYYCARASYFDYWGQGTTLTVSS VL: DILLTQSPATLSVSPGERVTFSCRASQNIGTSIHWFQQRTTGSPRLLIKYASESISGIPSRFSGSGSGTDFTLHINSVESEDIAHYYCQHSHSWPFTFGSGTKLEIQR

>  <EC50 / pM>
967

$$$$
>  <Binder>
benchmark (in house prepared sacituzumab) (antibody, human IgG1, kappa, V domains shown, also called BM; BM1) VH: SVQLQQSGSELKKPGASVKVSCKASGYTFTNYGMNWVKQAPGQGLKWMGWINTYTGEPTYTDDFKGRFAFSLDTSVSTAYLQISSLKADDTAVYFCARGGFGSSYWYFDVWGQGSLVTVSS VL: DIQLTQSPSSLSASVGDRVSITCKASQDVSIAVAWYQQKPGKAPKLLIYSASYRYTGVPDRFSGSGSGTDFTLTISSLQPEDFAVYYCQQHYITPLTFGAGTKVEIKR

>  <EC50 / pM>
599

$$$$
>  <Binder>
mouse antibody A1E4F7D4 (antibody, V domains shown, Mouse monoclonal IgG purified from hybridoma supernatant; also called Mouse A1E4F7D4) VH: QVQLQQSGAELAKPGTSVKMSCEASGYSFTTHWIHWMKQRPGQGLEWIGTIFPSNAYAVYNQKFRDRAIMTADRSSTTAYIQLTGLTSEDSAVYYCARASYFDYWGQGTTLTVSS VL: DILLTQSPATLSVSPGERVTFSCRASQNIGTSIHWFQQRTTGSPRLLIKYASESISGIPSRFSGSGSGTDFTLHINSVESEDIAHYYCQHSHSWPFTFGSGTKLEIQ

>  <EC50 / pM>
837

$$$$
>  <Binder>
huA1E4F7D4-V16 (antibody, human IgG1, kappa, V domains shown, Positions of the X residues are given in the claims; also called humanized antibody huA1E4F7D4-V16) VH: QVQLVQSGAEVKKPGASVKVSCKASGYSFTTHWIHWVRQAPGQGLEWIGTIFPSNAYAVYNQKFRDRATMTADTSISTAYIELSRLRSDDTAVYYCARASYFDYWGQGTTVTVSS VL: EIVLTQSPATLSLSPGERATLSCRASQNIGTSIHWFQQKPGGAPRLLIKYASESISGIPSRFSGSGSGTDFTLTISSLEPEDFAVYYCQHSHSWPFTFGQGTKLEIKR

>  <EC50 / pM>
611

$$$$
